- Tested on: RPMI-8226
- Protocol: NCI tumour cell line growth inhibition, 48 h
Active and inactive are the calls of the source. Rule as the data show it: active = GI50 up to about 1.1 µM and inactive = higher.
Quantity: GI50

For orientation, consider the following solved cases.
* CSc1sc(=S)sc1SC | > 100 µM (inactive)
* COc1ccc(C(=O)O)c2c(=O)c3ccccc3[nH]c12 | > 100 µM (inactive)

Next compound, please.
Qu. Name the recorded GI50 for `CCCNc1ncnc2c1cnn2C` .
Ans. > 100 µM (inactive)

----------
- Test system: M14
- Protocol: NCI tumour cell line growth inhibition, 48 h
Active and inactive are the calls of the source. Rule as the data show it: active = GI50 up to about 1.1 µM and inactive = higher.
Quantity: GI50

Example entries and their recorded answers appear below.
• CN(C)c1ccc(/C=C2\CCc3ccccc3C2=O)cc1Br = 53.6 µM (inactive)
• c1ccc2c(c1)CCN2CCc1c[nH]c2ccccc12 = > 10 µM (inactive)

Then this compound:
Qu. For `N#C/C(=C\c1ccc2ccccc2c1)C(=O)c1ccccc1` , what is its reported GI50?
Ans. > 64.9 µM (inactive)

----------
- Test system: OVCAR-5
- Protocol: NCI tumour cell line growth inhibition, 48 h
Calls of active or inactive are those of the source. Rule as the data show it: active = GI50 up to about 1.1 µM and inactive = higher.
Quantity: GI50

The following compounds have reported results that may help.
* CCC(C)C1(O)OC2CC3(C)OC(=CC3=O)/C(C)=C\C3OC(=O)C1(C)C32 (centres undefined) | 28.3 µM (inactive)
* Nc1ccccc1C(=O)CC1OC(=O)c2ccccc21 (centres undefined) | > 100 µM (inactive)
* Cc1cc2ccc(N)nc2nc1O | > 100 µM (inactive)

Now for the compound whose GI50 we want.
Qu. Look up GI50 for this compound: `CCOC(=O)CNC(=O)N(CC)C12CC3CC(CC(C3)C1)C2`
Ans. 161 µM (inactive)

----------
The following molecules are shown together with reported GI50 values.
- System: SR
- Protocol: NCI tumour cell line growth inhibition, 48 h
Active and inactive are the calls of the source. Cut-off read from the data, not from the text of the source: active = GI50 up to about 1.1 µM and inactive = higher.

Consider the following illustrative entries.
* Cc1cc2c3ccccc3[nH]c2c2ccnc(C)c12 | 6.62 µM (inactive)
* Cc1ncc(COP(=O)(O)O)c(C)c1O | > 100 µM (inactive)
* COc1ccc(COCC[C@H](C)OC2OC(CO[Si](C)(C)C(C)(C)C)C(O)C(O)C2O)cc1 (stereo not given in full) | > 100 µM (inactive)
* O=C(O)CC1NCc2cc3ccccc3nc21 (stereo not given) | > 100 µM (inactive)
* COc1cc(O)ccc1C(=S)SC | 43.2 µM (inactive)
* O=C(Nc1ccc([N+](=O)[O-])cc1Cl)c1cccc([N+](=O)[O-])c1O | 2.9 µM (inactive)
* COC(=O)c1c2c(cc3c1CC1(Cc4cc5c(cc4C1=O)CCC5)C3)CCC2 (stereo not given) | > 10 µM (inactive)
* O=C(O)Cn1ccc(=O)c2cc([N+](=O)[O-])ccc21 | > 100 µM (inactive)

Qu. Requested read-out: GI50. Entry: COC(=O)C1OC(O[C@H]2CC[C@]3(C)[C@H]4CC=C5[C@@H]6CC(C)(C)CC[C@]6(C(=O)OC)CC[C@@]5(C)[C@]4(C)CC[C@H]3C2(C)C)C(O)C(O)C1O (stereo not given in full)
Ans. 3.72 µM (inactive)

Qu. Reported GI50 for `CCOC(=O)[C@@H]1C[C@H]1c1ccc(O)c(O)c1` : what is it?
Ans. 45.3 µM (inactive)

----------
- Test system: HOP-62
- Protocol: NCI tumour cell line growth inhibition, 48 h
Active and inactive are the calls of the source. No stated cut-off is given here; in the data, active = GI50 up to about 1.1 µM and inactive = higher.
Form field: GI50 (one value per entry).

Worked cases, answers included:
* Cc1cc(N(CCC#N)CCC#N)ccc1/N=N/c1ccc(Br)cc1 | 6.41 µM (inactive)
* O=C(O)c1cc(CCc2cc(O)ccc2O)ccc1O | > 100 µM (inactive)
* COc1ccc(N2C(=O)C3c4[nH]c5cc(C)ccc5c4C4CCC(C(C)(C)C)CC4C3C2=O)cc1 (centres undefined) | 7.6 µM (inactive)

Qu. Please report the recorded GI50 for `COc1cc(NC(C)=O)ccc1C(=O)NN1C(=O)/C(=C/c2ccco2)N=C1c1ccccc1` .
Ans. 21.4 µM (inactive)

----------
Listed here are molecules together with their documented GI50.
- Test system: EKVX
- Protocol: NCI tumour cell line growth inhibition, 48 h
The source made the active and inactive calls. Rule as the data show it: active = GI50 up to about 1.1 µM and inactive = higher.

- C=C(NC(=O)C(=C)NC(=O)c1csc(C2=NC3c4csc(n4)C4NC(=O)c5csc(n5)C(C(C)(O)C(C)O)NC(=O)C5CSC(=N5)/C(=C/C)NC(=O)C(C(C)O)NC(=O)c5csc(n5)C3(CC2)NC(=O)C(C)NC(=O)C(=C)NC(=O)C(C)NC(=O)C(C(C)CC)NC2C=Cc3c(C(C)O)cc(nc3C2O)C(=O)OC4C)n1)C(N)=O (centres undefined): 18.2 µM (inactive)

Qu. Would you kindly share the measured GI50 for `Cc1cc(N(CCC#N)CCC#N)ccc1/N=N/c1ccc(Br)cc1` ?
Ans. 26.8 µM (inactive)

----------
Entries and their GI50 values follow.
- System: OVCAR-5
- Protocol: NCI tumour cell line growth inhibition, 48 h
The source made the active and inactive calls. No stated cut-off is given here; in the data, active = GI50 up to about 1.1 µM and inactive = higher.

Solved cases below.
* CC(C)C(N)(C(=O)O)c1ccccc1 (stereo not drawn) | > 100 µM (inactive)
* C=C(C)CNC(=S)N(N)c1ccc(OC)cc1 | > 100 µM (inactive)
* COc1ccc(CN(CCc2c[nH]c3ccccc23)Cc2ccc(OC)cc2)cc1 | 3.64 µM (inactive)

Qu. Reported GI50, compound CCC1C[N+]23CCc4c([nH]c5ccccc45)C2CC1CC3 (stereo not drawn) : ____
Ans. > 100 µM (inactive)

Qu. Which GI50 reading was recorded for the compound `Nc1c(-c2cccc3ccccc23)c2ccc([N+](=O)[O-])cc2c(=O)n1-c1nc2ccccc2s1` ?
Ans. 14.3 µM (inactive)

Qu. For `Nc1c(Cl)c([N+](=O)[O-])cc2c1OCCCCO2` , what is its reported GI50?
Ans. > 100 µM (inactive)

Qu. Query: GI50; subject: `COc1cccc(C(=O)Oc2ccc(OS(=O)(=O)c3ccc(C)cc3)cc2)c1C#N`
Ans. > 100 µM (inactive)

Qu. Suppose we examine the compound `CSC(=S)N/N=C/c1ccccc1` ; what GI50 value has been reported?
Ans. > 100 µM (inactive)

Qu. May I ask what GI50 has been recorded for `COc1ccc(C(=O)O)c2c(=O)c3ccccc3[nH]c12` ?
Ans. > 100 µM (inactive)

Qu. // returns reported GI50 for input `C1=CN2C[n+]3cccc(OCc4ccccc4)c3N=C2C(OCc2ccccc2)=C1`
Ans. 52 µM (inactive)

Qu. Recorded GI50 of `O=C1c2ccccc2C(=O)c2sc(Nc3cccc(Cl)c3)nc21` , please.
Ans. 2.22 µM (inactive)

Qu. For O=[N+]([O-])c1ccc2c(c1)N=C1OC(c3c[nH]c4ccc(COc5ccccc5)cc34)C(O)=C1N2 (stereo not drawn) , what is its reported GI50?
Ans. > 100 µM (inactive)

Qu. Find the recorded GI50 belonging to `CCOC(=O)c1c(NC(=O)c2ccc(Br)cc2)sc2c1CCCC2` and report it.
Ans. > 100 µM (inactive)

Qu. Quick check: GI50 of `O=c1c2ccccc2c(=O)c2c1cc(Cl)c1[nH]c3c([nH]c12)c(Cl)cc1c(=O)c2ccccc2c(=O)c13` ?
Ans. > 100 µM (inactive)

Qu. Any idea what its GI50 is? The compound is O=CN(CCN1CCCC1)C1CCc2cc(Cl)c(Cl)cc2C1 (stereo not drawn)
Ans. 17.4 µM (inactive)

Qu. Reported GI50 for COC(=O)c1c2c(cc3c1CC1(Cc4cc5c(cc4C1=O)CCC5)C3)CCC2 (stereo not drawn) : what is it?
Ans. > 100 µM (inactive)

Qu. Dear colleague, I am looking for the recorded GI50 of the following compound: `COc1ccc2nc3cc(Cl)ccc3c(NCCCN(CCCl)CCCl)c2c1`
Ans. 0.034 µM (active)

Qu. Returns the measured GI50 for the input compound. Input: `Cc1ccc(C2=Nc3c(c(C)nn3-c3ccccc3)N=C(C(=O)O)C2)cc1`
Ans. > 10 µM (inactive)

----------
Readings of GI50 for the listed compounds
- System: PC-3
- Protocol: NCI tumour cell line growth inhibition, 48 h
Calls of active or inactive are those of the source. No stated cut-off is given here; in the data, active = GI50 up to about 1.1 µM and inactive = higher.

Qu. // returns reported GI50 for input COc1ccc(N2C(=O)C3c4[nH]c5cc(C)ccc5c4C4CCC(C(C)(C)C)CC4C3C2=O)cc1 (stereo not given)
Ans. 5.24 µM (inactive)

Qu. Query (compound): `CSC(=S)N/N=C/c1ccccc1` ; field requested: GI50
Ans. 97.9 µM (inactive)

Qu. Given COc1ccc(COCC[C@H](C)OC2OC(CO[Si](C)(C)C(C)(C)C)C(O)C(O)C2O)cc1 (stereo not given in full) , state its recorded GI50.
Ans. 72.9 µM (inactive)

Qu. Requested read-out: GI50. Entry: `CCOC(OCC)[C@H](N)[C@@H](O)[C@@H](O)[C@H]1COC(C)(C)O1`
Ans. > 100 µM (inactive)

Qu. Would you kindly share the measured GI50 for O=CN(CCN1CCCC1)C1CCc2cc(Cl)c(Cl)cc2C1 (stereo not given) ?
Ans. 11.4 µM (inactive)

Qu. Entry under review: `C/C(=N\N=C(\N)SB(F)F)c1ccc2ccccc2c1` . Reported GI50?
Ans. > 100 µM (inactive)
